# Assay Details: in vivo
# Cond: BALB/c nude, mouse, in vivo, iv, total radioactivity, % ID/g Pancreas
# Procedure: To a 0.5 M NaOAc buffer (20-50 μL, pH=4.5) was added 4 μL of exemplary or comparator compound in DMSO stock solution (2000 μM) and 2 mCi ^177Lu (ITM Isotope Technologies Munich), the resulting mixture was heated to 95° C. for 15 min. The resulting product was analyzed by radio-TLC and radio-HPLC (column: Shim-pack GIST 5 μm 4.6*150 mm; buffer A: 0.2% formic acid H2O; buffer B: 0.1% formic acid acetonitrile; flow rate: 1 mL/min; gradient: 0-5 min: 10% B to 95% B; then 5-8 min: 95% B). […]
Reported Metric: tissue uptake at 4 h (%ID/g)
Report only the number, with the unit %ID/g understood.

Query :: Using the record for C[C@@H](O)[C@H](NC(=O)[C@@H]1CSSC[C@H](NC(=O)[C@@H](Cc2ccccc2)NC(=O)CN2CCN(CC(=O)O)CCN(CC(=O)O)CCN(CC(=O)O)CC2)C(=O)N[C@@H](Cc2ccc(O)cc2)C(=O)N[C@H](Cc2c[nH]c3ccccc23)C(=O)N[C@@H](CCCCN)C(=O)N[C@@H]([C@@H](C)O)C(=O)N1)C(=O)O [^177Lu-C-1, metal not drawn, reference compound] , report its tissue uptake at 4 h.
Result :: 0.02
